The measured values listed here are drawn from patent US20240309070A1.

study-system: T1, VV B5 monomer protein (Wyeth Vaccinia strain B5 with C-terminal AVI tag and HIS6 tag) (Vaccinia virus, Wyeth strain, UniProt O57254 18-279)
T1 construct: also called B5 protein; VV B5 protein
experiment: BLI (Octet), antibody on AHC sensor, B5 monomer analyte
reported-endpoint: koff (s⁻¹)
Answer format: numeric, s⁻¹ implied, no suffix.

>>> assay_value("A048-H2L2 (antibody, V domains shown) VH: EVQLLESGGGLVQPGGSLRLSCAASGFSFSSSYYMCWVRQAPGKGLEWIACIYTSSGSAYYANWAKGRFTISRTSSTTVTLQMNSLRAEDTAVYYCVRNAVGSSYYLYLWGQGTLVTVSS VL: AQVLTQSPSTLSASVGDRVTITCQASQSVAGNNYLSWYQQKPGKAPKLLIYSVSTLASGVPSRFSGSGSGTEFTLTISSLQPDDFATYYCQGYYNDGIWAFGQGTKVEIK")
0.000698
>>> assay_value("A048-H3L4 (antibody, V domains shown) VH: EVQLLESGGGLVQPGGSLRLSCAASGFSFSSSYYMCWVRQAPGKGLEWIACIYTSSGSAYYADSVKGRFTISRDNSKNTLYLQMNSLRAEDTAVYYCVRNAVGSSYYLYLWGQGTLVTVSS VL: AQVLTQSPSSLSASVGDRVTITCQASQSVAGNNYLSWYQQKPGKVPKLLIYSVSTLASGVPSRFSGSGSGTDFTLTISSLQPEDVATYYCQGYYNDGIWAFGQGTKVEIK")
0.000722

[in] Need koff, item A048-H3L1 (antibody, V domains shown) VH: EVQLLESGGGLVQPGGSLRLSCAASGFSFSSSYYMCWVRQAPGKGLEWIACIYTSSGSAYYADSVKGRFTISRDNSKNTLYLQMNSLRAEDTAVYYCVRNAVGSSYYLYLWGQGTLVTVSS VL: DIQMTQSPSTLSASVGDRVTITCQASQSVAGNNYLSWYQQKPGKAPKLLIYSVSTLASGVPSRFSGSGSGTEFTLTISSLQPDDFATYYCQGYYNDGIWAFGQGTKVEIK
[out] 0.000468
